Numbers sourced from ChEMBL document CHEMBL1138583.

measurement.target: Tyrosine-protein kinase SYK (Homo sapiens, UniProt P43405)
assay.details: Inhibition of recombinant Syk
property.label: IC50 (nM)

Look over these answered cases.
FC(F)(F)c1ccc(Nc2nccc(-c3nccs3)n2)cc1	500
Cc1ccc(C)c(Nc2nccc(-c3nccs3)n2)c1	1820
COc1cc(Nc2nc(NC3CCCC[C@H]3N)n3nc(C)nc3c2C(N)=O)cc(OC)c1 (some centres not stated)	11.2
NCCCNc1nc(-c2cccc(C(F)(F)F)c2)cc2ncccc12	830

a. Cc1cccc(Nc2nc(N[C@@H]3CCCC[C@@H]3N)ccc2C(N)=O)c1
b. CC(C)c1cccc(Nc2nc(NCCN)ncc2C(N)=O)c1
Lab log: flag the item ( a or b ) with the smaller IC50 figure. Answer by quoting the chosen item's label.
a
(a: 50 nM, b: 92 nM)

P. Cc1cc(C)cc(Nc2nccc(-c3nc(C)cs3)n2)c1
Q. c1ccn(CCOc2ccc(Nc3nccc(-c4nccs4)n3)cc2)c1
R. NC(=O)c1cncnc1Nc1cccc(C(F)(F)F)c1
Rank ascending by IC50. Lab note: final answer is the ordered label list.
P, Q, R

1. COC(=O)c1ccc(COc2ccc(Nc3nccc(-c4nccs4)n3)cc2)cc1
2. Cc1cc(Nc2nccc(-c3nccs3)n2)cc(C(F)(F)F)c1
3. Cc1cc(C)cc(Nc2nccc(-c3nc(C)c(CCO)s3)n2)c1
4. c1cncc(Oc2cccc(Nc3nccc(-c4nccs4)n3)c2)c1
hey, can you rank those compounds up there by IC50? biggest number first please Provide the labels, sequenced as the question asks.
1, 4, 2, 3
(1: 2000 nM, 4: 500 nM, 2: 110 nM, 3: 32 nM)

A. c1ccc2cc(Nc3nccc(-c4nccs4)n3)ccc2c1
B. Oc1ccc(Nc2nccc(-c3nccs3)n2)cc1
C. NCCNc1ncc(C(N)=O)c(Nc2ccccc2)n1
Form: Sort by [IC50] Order [ ascending ] Submit the labels in the order that the ranking request calls for.
C, B, A
(C: 280 nM, B: 500 nM, A: 2000 nM)

1. Nc1ccccc1COc1ccc(Nc2nccc(-c3nccs3)n2)cc1
2. c1cc(-c2nccs2)nc(Nc2ccc(OCC3CCCCC3)cc2)n1
Lab note: check whether 1 or 2 shows the higher recorded IC50. Answer by stating the label of the chosen item.
2
(2: 2000 nM, 1: 500 nM)
